# System: HCC-2998 colon
# assay_protocol: NCI-60 one-dose screen, 48 h
# setup_conditions: 10 µM unless noted
The panel holds about 83,000 compounds, 20% with a hit somewhere; the sample as a whole holds those more often. Active and inactive are the calls of the source. Rule for the calls: active = growth percent below 10; inactive = the rest.
Hello, when you answer, please use one of the following outcomes: active, inactive

Q: Hey, what did the test say about Cc1ccc(S(=O)(=O)N2C/C(=C\c3cc(F)cc(F)c3)C(=O)/C(=C/c3cc(F)cc(F)c3)C2)cc1 ?
A: active

Q: Hey, what did the test say about COc1ccc(CSc2nc3cc(OC)c(OC)cc3c(=O)n2-c2ccc(Cl)cc2)cc1 ?
A: inactive

Q: Hey, what did the test say about COc1cc(CNCCCN2C(=O)c3ccc4c5c(ccc(c35)C2=O)C(=O)N(CCCNCc2cc(OC)c(OC)c(OC)c2)C4=O)cc(OC)c1OC ?
A: active

Q: Hey, what did the test say about Cn1c2ccccc2c2nn(Cc3ccccc3)c(=O)nc21 ?
A: inactive

Q: Hey, what did the test say about CC1(C)N=C(N)N=C(N)N1c1cccc(/C=C/C=C/c2cccc([N+](=O)[O-])c2)c1 ?
A: inactive

Q: Hey, what did the test say about Cc1ccc(N=c2nc3sc4c(C)ccc(C)c4n3c(N)c2C#N)cc1 ?
A: inactive

Q: Hey, what did the test say about O=C(c1ccc2ncc(-c3nc(NC4CC4)ncc3F)n2c1)N1CCOCC1 ?
A: inactive

Q: Hey, what did the test say about CC(C)(C)[Si](C)(C)OC1[C@@H](COC(=O)NC(=O)CCl)O[C@@H](n2cnc3c(N)ncnc32)[C@H]1O[Si](C)(C)C(C)(C)C (stereo partly drawn) ?
A: inactive

Further cases:
Q: Hey, what did the test say about COc1ccc(/C=C2\CN(Cc3cn(CCCNc4ccnc5cc(Cl)ccc45)nn3)C/C(=C\c3ccc(OC)c(OC)c3)C2=O)cc1OC ?
A: active

Q: Hey, what did the test say about Cc1nc2cc(Nc3nc(Nc4ccc(F)cc4)nc(-c4cccs4)n3)ccc2n1Cc1ccccc1 ?
A: inactive

Q: Hey, what did the test say about O=c1onc(-c2ccccc2)c2ccccc12 ?
A: inactive

Q: Hey, what did the test say about Cc1nn(-c2ccccc2)c2nc3nc4c(c(N)c3c(-c3ccc(Cl)cc3)c12)CCCC4 ?
A: inactive

Q: Hey, what did the test say about Cc1ccc2c(N/N=C\c3ccco3)cc(C)nc2n1 ?
A: inactive

Q: Hey, what did the test say about COC(=O)[C@@]12CC[C@@H](C)[C@]3(C[C@@H](c4ccoc4)OC3=O)[C@H]1CC[C@@H]1O[C@@]12C ?
A: inactive

Q: Hey, what did the test say about CSC1=CC(=O)c2ccccc2C1=O ?
A: inactive

Q: Hey, what did the test say about COc1cccc(C2C3=C(COC3=O)N(CCO)c3cc4c(cc32)OCO4)c1 (stereo not drawn) ?
A: active

Q: Hey, what did the test say about FC(F)(F)c1cc(CNc2ncc(Br)c(Cl)n2)cc(C(F)(F)F)c1 ?
A: inactive

Q: Hey, what did the test say about COc1ccc(-c2c3c(N)c4c(nc3nc3c2c(C)nn3-c2ccccc2)CCCC4)cc1 ?
A: inactive

Q: Hey, what did the test say about CCCCc1ccc(NC(=O)C(F)(F)F)cc1 ?
A: inactive

Q: Hey, what did the test say about c1ccc2cc(Cn3c(-c4ccc5ccccc5c4)[n+](Cc4ccc5ccccc5c4)c4ccccc43)ccc2c1 ?
A: active

Q: Hey, what did the test say about CCCC1=NNC(=O)C1 ?
A: inactive

Q: Hey, what did the test say about O=c1nc(NO)[nH]c(=O)n1Cc1ccc(F)cc1 ?
A: inactive

Q: Hey, what did the test say about Cn1c2c(cc(S(=O)(=O)c3ccccc3)c1=O)CCc1c-2cnn1-c1ccccc1Cl ?
A: inactive

Q: Hey, what did the test say about O=S(=O)(Nc1ncccn1)c1ccc(Nc2ccc3nnc(-c4ccncc4)n3n2)cc1 ?
A: inactive

Q: Hey, what did the test say about COc1cc(-c2nc(SC(C)C)nc(Nc3ccccc3C)c2C#N)cc(OC)c1OC ?
A: inactive

Q: Hey, what did the test say about Cn1c2ccccc2c2nn(C(=O)c3ccccc3)c(=O)nc21 ?
A: inactive

Q: Hey, what did the test say about CN1CCn2c(c(Sc3ccc(C(=O)NO)cc3)c3ccccc32)C1=O ?
A: active

Q: Hey, what did the test say about COc1ccccc1-n1c(SCc2cc(OC)c(OC)c(OC)c2)nc2ccc(Cl)cc2c1=O ?
A: inactive

Q: Hey, what did the test say about O=C(NCc1ccco1)C1CCN(S(=O)(=O)c2ccc(Cl)cc2)CC1 ?
A: inactive
